Tested on: A498 renal
run.description: NCI tumour cell line growth inhibition, 48 h; in the data active = GI50 below about 0.43 µM; inactive = the rest
Assign a class; possible classes are yes = active, no = inactive

CN1CCN(C(=S)SCN2C(=O)c3ccccc3S2(=O)=O)CC1 | no

Q: Assay outcome for CCCCCCCCCCCCNC(=O)[C@H]1CSC(c2ccc(OC)c(F)c2)N1 (some centres not stated) : what was it?
Result: no

Q: Assay outcome for CC[C@@]1(O)C(=O)OCc2c1cc1n(c2=O)Cc2cc3c(NC(C)=O)c(O)ccc3nc2-1 : what was it?
Result: no

Q: Assay outcome for CCSc1nc(N)c2cnn(C)c2n1 : what was it?
Result: no

Q: Assay outcome for CC1SC2(CCCCC2)N(NC(=O)c2[nH]c3ccc(F)cc3c2-c2ccccc2)C1=O (configuration not stated) : what was it?
Result: no

Q: Assay outcome for OCCCCC#Cc1ccccc1C#Cc1cnccn1 : what was it?
Result: no

Q: Assay outcome for O=c1[nH]c2cc(O)ccc2n2cc3c(F)cccc3c12 : what was it?
Result: no

Q: Assay outcome for COC(=O)Nc1nc2ccc(Sc3ccc(NC(=O)Nc4cc(C(F)(F)F)ccc4F)cc3)cc2[nH]1 : what was it?
Result: no

Q: Assay outcome for CCCCCCCCCCCCCCCCCC1=NC(C)(C)CN1CCO : what was it?
Result: no
